Assay: Metabolic stability in mouse liver microsomes at 1 uM by LC-MS/MS analysis
Type: ADME, Microsome
OBSERVABLE: Stability
Please give the number followed by its unit.

Consider the worked cases shown below.
SMILES_STR: Fc1cc(-c2ccnc(Nc3ccc(-n4cnc(N5CCOCC5)n4)cc3)n2)cc(N2CCOCC2)c1
Stability: 21 min
//
SMILES_STR: N#Cc1cc(-c2ccnc(Nc3ccc(-n4cnc(-c5ccccn5)n4)cc3)n2)cc(N2CCOCC2)c1
Stability: 51 min
//
SMILES_STR: Cn1nnc(-c2ccc(Nc3nccc(-c4cc(C#N)cc(N5CCOCC5)c4)n3)cc2)n1
Stability: 26 min

Could you now look at the following compound, please?
// query // Stability lookup, key: `Cc1ncn(-c2ccc(Nc3nccc(-c4cccc(N5CCOCC5)c4)n3)cc2)n1`
// result 5 min

Hello, the source for this data is ChEMBL document CHEMBL1156783, in case you need it.
